Tested on: C2C12 Cells
Assay Info: Transfection of C2C12 cells with DOTMA/DOPE/peptide and eGFP plasmid, fluorescent plate reader
Assay type: cell-based, mouse
Condition Description: DOTMA/DOPE 1:1 plus peptide with RRRRRRRRRRRR (SEQ ID NO: 109) at n terminus; EF1Alpha eGFP plasmid; 0.02 mL complex; 42 hours
Metric: RF (Relative Fluorescence) of Transfection of C2C12 Cells
Format: numeric value only, no unit, no commentary.

Examples with answers:
substance="229 (PPFLMLLKGSTR; Peptidic transfection agent) [compound 229]" readout_number=1164
substance="226 (ANGQTPIQRYIK; Peptidic transfection agent) [compound 226]" readout_number=1664
substance="501 (DLGTAGSCLRRFSTM; Peptidic transfection agent) [compound 501]" readout_number=5913
substance="359 (KAFDITYVRLKF; Peptidic transfection agent) [compound 359]" readout_number=5693
substance="338 (GTPGPQGIA; Peptidic transfection agent) [compound 338]" readout_number=2290

Attention now shifts to the item below.
The substance listed as 351 (LNRQELFPFG; Peptidic transfection agent) [compound 351] has a reported RF (Relative Fluorescence) of Transfection of C2C12 Cells of 3530

Just for reference, patent US11085056B2 is where these values come from.
